Tested on: E. coli assay strain Km3
Experiment: Liquid B-galactosidase assays of chlorsulfuron repressor hits (induction and repression)
Conditions: CsL4.2 hits; liquid B-galactosidase assay, 20 ppb Cs
resultType: IND = induction with 20 ppb CS (B-galactosidase)
API doc: respond with a numeric literal and nothing else, no unit.

Data request: So what does the record say about IND = induction with 20 ppb CS (B-galactosidase) for CsL4.2-15: top CsR hit of library CsL4.2 (protein, Sulfonylurea responsive repressor) MARLDKSKVINSALELLNEVGIEGLTTRKLAQKLGVEQPTLYWHVKNKRALLDALAIEMHDRHQTHYLPLEGESWQDFLRNFAKSMRRALLSHRDGAKVSLGTRWTEQQYETAENMLAFLTQQGFSLENALYATDAVRVFTLGAVLLDQEQQVAKEERETPTTDSMPPLLRQAWELKVHQGAEPAFLFGLELIIAGLEKQLKRESGS ?
Data returned: 4.0

Data request: So what does the record say about IND = induction with 20 ppb CS (B-galactosidase) for CsL4.2-28 (protein, Sulfonylurea responsive repressor) MARLDKSKVINSALELLNEVGIEGLTTRKLAQKLGVEQPTLYWHVKNKRALLDALAIEMMDRHQTHYLPLEGESWQDYLRNFAKSMRCALLSHRDGAKVALGTRWTEQQYETAENMLAFLTQQGFSLENALYATSAVRVFTLGAVLLDQEQQVAKQERETPTPDSMPPLLRQAWELKVHQGAEPAFLFGLELIIAGLEKQLKRESGSHHHHHH ?
Data returned: 5.3

Data request: So what does the record say about IND = induction with 20 ppb CS (B-galactosidase) for CsL4.2-22 (protein, Sulfonylurea responsive repressor) MARLDKSKVINSALELLNEVGIEGLTTRKLAQKLGVEQPTLYWHVKNKRALLDALAIEMHDRHQTHYLPLEGESWQDFLRNFAKSMRRALLSHRDGAKIALGTRWTEQQYETAENMLAFLTQQGFSLENALYATDAVRVFTLGAVLLDQEQQVAKEERETPTPDSMPPLLRQAWELKDHQGAEPAFLFGLELIIAGLEKQLKRESGSHHHHHH ?
Data returned: 5.4

Data request: So what does the record say about IND = induction with 20 ppb CS (B-galactosidase) for CsL4.2-04 (protein, Sulfonylurea responsive repressor) MARLDKSKVINSALELLNEVGIEGLTTRKLAQKLGVEQPTLYWHVKNKRALLDALAIEMHDRHQTHYLPLEGESWQDFLRNFAKSMRCALLSHRDGAKVALGTRWTEQQYETAENMLAFLTQQGFSLENALYATDAVRVFTLGAVLLDQEQQVANEGRETPTTDSMPPLLRQAWELKEHQGAEPAFLFGLELIIAGLEKQLKRESGSHHHHHH ?
Data returned: 4.3

Hello, the source for this data is patent US20160152995A1, in case you need it.
